# assayed.system: HiBiT-BRM fusion protein in stable HeLa cell line (Homo sapiens)
# Construct: expressed in transfected cells
# test.summary: HiBiT-BRM cell-based degradation assay (Nano-Glo HiBiT Lytic Detection, 24 h)
# Design: scale not given here
# experimental.conditions: HeLa HiBiT-BRM cells, read-out: BRM HiBit Degradation IC50
property.measured: DC50

These solved cases illustrate the format of a correct answer.
{"molecule.smiles": "Cc1ncsc1-c1ccc([C@H](C)NC(=O)[C@@H]2C[C@@H](O)CN2C(=O)[C@@H](c2cc(N3CCC4(CC3)CC(c3ccc5cc(-c6cc(F)cc(F)c6O)nnc5c3)C4)no2)C(C)C)cc1", "assayed.system": "HiBiT-BRM fusion protein in stable HeLa cell line (Homo sapiens)", "DC50": "< 10 nM"}
{"molecule.smiles": "Cc1ncsc1-c1ccc([C@H](C)NC(=O)[C@@H]2C[C@@H](O)CN2C(=O)[C@@H](c2cc(N3CC4=C(CN(c5ccc6nnc(-c7ccccc7O)cc6c5)C4)C3)no2)C(C)C)cc1", "assayed.system": "HiBiT-BRM fusion protein in stable HeLa cell line (Homo sapiens)", "DC50": "< 10 nM"}

Next, consider the following compound.
Measured DC50 of Cc1ncsc1-c1ccc([C@H](C)NC(=O)[C@@H]2C[C@@H](O)CN2C(=O)[C@@H](c2cc(N3CCC4(CC3)CN(c3ccc5cc(-c6ccccc6O)nnc5c3)C4)no2)C(C)C)cc1 : < 10 nM

====

# assayed.system: HiBiT-BRM fusion protein in stable HeLa cell line (Homo sapiens, UniProt P51531)
# Construct: expressed in transfected cells
# Sequence (P51531 whole entry, the tested form may be a part): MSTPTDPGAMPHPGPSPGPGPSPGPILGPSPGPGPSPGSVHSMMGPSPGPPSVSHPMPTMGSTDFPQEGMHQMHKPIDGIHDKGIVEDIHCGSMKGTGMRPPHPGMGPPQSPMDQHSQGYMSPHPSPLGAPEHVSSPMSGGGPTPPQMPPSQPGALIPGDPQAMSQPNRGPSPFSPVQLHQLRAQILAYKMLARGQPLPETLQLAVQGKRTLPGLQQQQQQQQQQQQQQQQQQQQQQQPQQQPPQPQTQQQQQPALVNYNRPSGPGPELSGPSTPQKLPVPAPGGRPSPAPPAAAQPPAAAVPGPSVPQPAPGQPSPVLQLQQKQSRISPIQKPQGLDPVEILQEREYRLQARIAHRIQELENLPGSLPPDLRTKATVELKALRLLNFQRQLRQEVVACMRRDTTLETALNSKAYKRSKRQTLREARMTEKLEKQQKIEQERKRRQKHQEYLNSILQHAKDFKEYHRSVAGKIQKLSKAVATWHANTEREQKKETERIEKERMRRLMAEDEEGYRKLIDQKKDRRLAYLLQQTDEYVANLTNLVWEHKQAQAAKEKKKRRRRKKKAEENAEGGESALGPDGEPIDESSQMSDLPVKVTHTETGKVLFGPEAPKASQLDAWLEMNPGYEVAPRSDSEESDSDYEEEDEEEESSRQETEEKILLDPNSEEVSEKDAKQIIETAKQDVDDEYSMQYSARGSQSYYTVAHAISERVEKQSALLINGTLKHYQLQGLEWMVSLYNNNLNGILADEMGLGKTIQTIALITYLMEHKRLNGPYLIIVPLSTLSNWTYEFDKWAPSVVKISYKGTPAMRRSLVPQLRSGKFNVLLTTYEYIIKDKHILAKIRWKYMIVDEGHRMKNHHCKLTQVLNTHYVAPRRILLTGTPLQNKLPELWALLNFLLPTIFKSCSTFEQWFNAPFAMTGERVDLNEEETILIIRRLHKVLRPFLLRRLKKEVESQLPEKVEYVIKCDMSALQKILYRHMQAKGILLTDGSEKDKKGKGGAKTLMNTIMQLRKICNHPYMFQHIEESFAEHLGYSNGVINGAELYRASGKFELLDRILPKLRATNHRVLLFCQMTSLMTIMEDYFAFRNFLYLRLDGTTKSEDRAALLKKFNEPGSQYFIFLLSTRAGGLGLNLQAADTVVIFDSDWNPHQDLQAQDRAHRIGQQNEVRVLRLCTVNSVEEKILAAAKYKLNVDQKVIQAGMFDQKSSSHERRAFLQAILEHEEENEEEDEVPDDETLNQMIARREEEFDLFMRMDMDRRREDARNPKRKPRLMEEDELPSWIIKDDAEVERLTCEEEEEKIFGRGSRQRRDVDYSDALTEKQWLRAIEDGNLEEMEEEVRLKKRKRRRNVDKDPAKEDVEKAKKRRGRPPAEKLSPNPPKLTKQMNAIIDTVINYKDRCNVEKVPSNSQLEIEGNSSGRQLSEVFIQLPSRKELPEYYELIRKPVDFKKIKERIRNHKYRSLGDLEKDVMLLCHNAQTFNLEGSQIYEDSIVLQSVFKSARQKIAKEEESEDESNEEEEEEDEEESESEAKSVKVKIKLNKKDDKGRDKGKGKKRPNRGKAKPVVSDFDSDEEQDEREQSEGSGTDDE
# test.summary: HiBiT-BRM cell-based degradation assay (Nano-Glo HiBiT Lytic Detection, 24 h)
# Design: scale not given here
# experimental.conditions: HeLa HiBiT-BRM cells, read-out: BRM HiBit Degradation IC50
property.measured: DC50

Example results:
{"molecule": "Cc1ncsc1-c1ccc([C@H](C)NC(=O)[C@@H]2C[C@@H](O)CN2C(=O)[C@@H](c2cc(N3CC[C@H](c4ccc5cc(-c6ccccc6O)nnc5c4)C3)no2)C(C)C)cc1", "DC50": "< 10 nM"}
{"molecule": "CNC(=O)[C@@H]1C[C@@H](O)CN1C(=O)[C@@H](c1cc(N2CC3(CN(c4ccc5cc(-c6ccccc6O)nnc5c4)C3)C2)no1)C(C)C", "DC50": "< 10 nM"}
{"molecule": "Cc1ncsc1-c1ccc([C@H](C)NC(=O)[C@@H]2C[C@@H](O)CN2C(=O)[C@H](C(C)C)n2cc(C3CC4(C3)CN(c3ccc5nnc(-c6ccccc6O)cc5c3)C4)nn2)cc1", "DC50": "< 10 nM"}
{"molecule": "Cc1ncsc1-c1ccc([C@H](C)NC(=O)[C@@H]2C[C@@H](O)CN2C(=O)[C@@H](c2cc(N3CC4(CN(c5ccc6cc(-c7ccccc7O)nnc6c5)C4)C3)no2)C(C)C)cc1 (single isomer, unassigned)", "DC50": "< 10 nM"}

# evaluate next
Measured DC50, C#Cc1cc2nnc(-c3ccccc3O)cc2cc1N1CC2(CN(c3cc([C@H](C(=O)N4C[C@H](O)C[C@H]4C(=O)N[C@@H](C)c4ccc(-c5scnc5C)cc4)C(C)C)on3)C2)C1 : < 10 nM

====

# assayed.system: HiBit-BRG1 fusion protein in stable HeLa cell line expressing HiBit-BRG1 and LgBit (Homo sapiens, UniProt P51532)
# Construct: expressed in transfected cells
# Sequence (P51532 whole entry, the tested form may be a part): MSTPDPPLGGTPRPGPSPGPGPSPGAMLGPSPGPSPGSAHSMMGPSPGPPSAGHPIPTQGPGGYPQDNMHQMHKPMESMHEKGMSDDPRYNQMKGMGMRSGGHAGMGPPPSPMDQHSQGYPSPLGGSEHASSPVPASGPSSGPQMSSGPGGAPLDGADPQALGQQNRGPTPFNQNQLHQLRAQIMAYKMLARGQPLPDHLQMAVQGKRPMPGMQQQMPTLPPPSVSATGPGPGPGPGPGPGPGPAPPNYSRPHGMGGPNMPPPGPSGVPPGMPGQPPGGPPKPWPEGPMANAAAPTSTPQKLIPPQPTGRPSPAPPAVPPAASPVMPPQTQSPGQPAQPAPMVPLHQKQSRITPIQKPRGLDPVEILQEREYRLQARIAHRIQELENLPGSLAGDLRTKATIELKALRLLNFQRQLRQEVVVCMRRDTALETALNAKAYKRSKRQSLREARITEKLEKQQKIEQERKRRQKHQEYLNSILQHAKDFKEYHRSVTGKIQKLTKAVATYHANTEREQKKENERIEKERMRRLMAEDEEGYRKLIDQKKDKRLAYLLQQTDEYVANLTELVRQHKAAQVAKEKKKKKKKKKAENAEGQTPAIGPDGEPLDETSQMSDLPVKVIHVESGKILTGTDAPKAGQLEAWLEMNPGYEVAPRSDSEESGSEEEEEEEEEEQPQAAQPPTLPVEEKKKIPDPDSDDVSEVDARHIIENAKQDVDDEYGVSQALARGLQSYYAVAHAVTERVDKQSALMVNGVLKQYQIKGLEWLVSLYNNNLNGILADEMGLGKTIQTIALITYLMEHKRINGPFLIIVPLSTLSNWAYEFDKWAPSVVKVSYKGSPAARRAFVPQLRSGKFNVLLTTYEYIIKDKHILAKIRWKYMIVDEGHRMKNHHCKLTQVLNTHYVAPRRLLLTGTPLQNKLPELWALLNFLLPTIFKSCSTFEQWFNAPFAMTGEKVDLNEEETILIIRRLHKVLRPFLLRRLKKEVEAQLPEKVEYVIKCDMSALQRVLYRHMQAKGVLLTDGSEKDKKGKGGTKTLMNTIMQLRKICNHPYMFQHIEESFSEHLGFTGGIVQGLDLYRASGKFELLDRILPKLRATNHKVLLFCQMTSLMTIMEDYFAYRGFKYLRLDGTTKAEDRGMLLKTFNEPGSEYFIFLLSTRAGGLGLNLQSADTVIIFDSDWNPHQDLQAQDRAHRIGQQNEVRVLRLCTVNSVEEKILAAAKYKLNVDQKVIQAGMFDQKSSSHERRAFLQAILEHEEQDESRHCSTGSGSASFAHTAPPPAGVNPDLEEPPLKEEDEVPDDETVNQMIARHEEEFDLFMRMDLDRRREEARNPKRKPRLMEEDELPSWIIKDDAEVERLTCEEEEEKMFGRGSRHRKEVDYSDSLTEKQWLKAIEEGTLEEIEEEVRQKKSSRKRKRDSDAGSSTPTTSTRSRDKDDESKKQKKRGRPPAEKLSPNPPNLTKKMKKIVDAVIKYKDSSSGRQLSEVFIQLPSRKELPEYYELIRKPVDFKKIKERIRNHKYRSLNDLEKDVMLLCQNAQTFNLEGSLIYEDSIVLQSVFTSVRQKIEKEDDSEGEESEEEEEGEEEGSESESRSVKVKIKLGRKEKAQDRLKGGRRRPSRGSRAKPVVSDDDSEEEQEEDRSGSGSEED
# test.summary: HiBiT-BRG1 cell-based degradation assay (Nano-Glo HiBiT, 24 h)
# experimental.conditions: HeLa HiBit-BRG1/LgBit cells, top dose 30 μM, read-out: BRG1 HiBit Degradation Maximum (%)
In this section we review reported Dmax values for a set of compounds.

{"compound": "Cc1ncsc1-c1ccc([C@H](C)NC(=O)[C@@H]2C[C@@H](O)CN2C(=O)[C@@H](c2cc(N3CC4(CCC(c5ccc6nnc(-c7ccccc7O)cc6c5)CC4)C3)no2)C(C)C)cc1 [Compound 62]", "result": "> 75%"}
{"compound": "Cc1ncsc1-c1ccc([C@H](C)NC(=O)[C@H]2C[C@H](O)CN2C(=O)C(c2cc(N3C[C@@H]4C[C@H]3CN4c3ccc4cc(-c5ccccc5O)nnc4c3)no2)C(C)C)cc1 (stereo partly shown) [Compound 224]", "result": "> 75%"}
{"compound": "Cc1ncsc1-c1ccc([C@H](C)NC(=O)[C@@H]2C[C@@H](O)CN2C(=O)[C@@H](c2cc(N3CC4(CN(c5cc(C6CC6)c6cc(-c7ccccc7O)nnc6c5)C4)C3)no2)C(C)C)cc1 [Compound 125]", "result": "< 50%"}
{"compound": "Cc1ncsc1-c1ccc([C@H](C)NC(=O)[C@@H]2C[C@@H](O)CN2C(=O)[C@@H](c2cc(N3CC4(CN(Cc5ccc6nnc(-c7ccccc7O)cc6c5)C4)C3)no2)C(C)C)cc1 [Compound 245]", "result": "< 50%"}
{"compound": "Cc1ncsc1-c1ccc([C@H](C)NC(=O)[C@@H]2C[C@@H](O)CN2C(=O)[C@@H](c2cc(N3CCC4(CC3)CC(c3ccc5nnc(-c6ccccc6O)cc5c3)C4)no2)C(C)C)cc1 [Compound 71]", "result": "> 75%"}
{"compound": "Cc1ncsc1-c1ccc([C@H](C)NC(=O)[C@@H]2C[C@@H](O)CN2C(=O)[C@@H](c2cc(N3CC[C@@H](c4ccc5cc(-c6ccccc6O)nnc5c4)C3)no2)C(C)C)cc1 [Compound 58]", "result": "< 50%"}
{"compound": "Cc1ncsc1-c1ccc([C@H](C)NC(=O)[C@@H]2C[C@@H](O)CN2C(=O)[C@@H](c2cc(N3CCC4(CCN(c5ccc6nnc(-c7ccccc7O)cc6c5)C4)C3)no2)C(C)C)cc1 (stereo partly shown) [Compound 98]", "result": "> 75%"}
{"compound": "Cc1ncsc1-c1ccc([C@H](C)NC(=O)[C@@H]2C[C@@H](O)CN2C(=O)[C@@H](c2cc(-c3cnc(N4CCN(c5ccc6nnc(-c7ccccc7O)cc6c5)CC4)nc3)no2)C(C)C)cc1 [Compound 13]", "result": "> 75%"}

Memo: Cc1ncsc1-c1ccc([C@H](C)NC(=O)[C@@H]2C[C@@H](O)CN2C(=O)[C@H](C(C)C)n2cc(-c3cc4cc(-c5ccccc5O)nnc4cc3F)nn2)cc1 [Compound 176] , reported Dmax: > 75%

Consider Cc1ncsc1-c1ccc([C@H](C)NC(=O)[C@@H]2C[C@@H](O)CN2C(=O)[C@@H](c2cc(N3CC4(C3)CN(c3cc5nnc(-c6ccccc6O)cc5cc3C3CC3)C4)no2)C(C)C)cc1 [Compound 126] . Its measured Dmax is > 75%

====

# assayed.system: HiBit-BRG1 fusion protein in stable HeLa cell line expressing HiBit-BRG1 and LgBit (Homo sapiens)
# Construct: expressed in transfected cells
# test.summary: HiBiT-BRG1 cell-based degradation assay (Nano-Glo HiBiT, 24 h)
# experimental.conditions: HeLa HiBit-BRG1/LgBit cells, top dose 30 μM, read-out: BRG1 HiBit Degradation Maximum (%)
Entries annotated with measured Dmax

Known results for compounds:
{"compound": "Cc1ncsc1-c1ccc([C@H](C)NC(=O)[C@@H]2C[C@@H](O)CN2C(=O)[C@@H](c2cc(N3CC4(CN(c5ccc6cc(-c7ccccc7O)nnc6c5)C4)C3)sn2)C(C)C)cc1", "property.measured": "Dmax", "result": "> 50%"}
{"compound": "Cc1ncsc1-c1ccc([C@H](C)NC(=O)[C@@H]2C[C@@H](O)CN2C(=O)C(F)(c2cc(N3CC4(CN(c5ccc6cc(-c7ccccc7O)nnc6c5)C4)C3)no2)C(C)C)cc1 (stereo in doubt)", "property.measured": "Dmax", "result": "> 50%"}
{"compound": "Cc1ncsc1-c1ccc([C@H](C)NC(=O)[C@@H]2C[C@@H](O)CN2C(=O)C(C(C)C)n2cc(N3CCN(CN4CCN(c5ccc6nnc(-c7ccccc7O)cc6c5)CC4)CC3)nn2)cc1 (some centres unmarked)", "property.measured": "Dmax", "result": "> 75%"}
{"compound": "Cc1ncsc1-c1ccc([C@H](C)NC(=O)[C@@H]2C[C@@H](O)CN2C(=O)C(C(C)C)n2cc(N3CCCC(CN4CCN(c5ccc6nnc(-c7ccccc7O)cc6c5)CC4)C3)nn2)cc1 (some centres unmarked)", "property.measured": "Dmax", "result": "> 75%"}

Now for the compound whose Dmax we want.
Looking up Cc1ncsc1-c1ccc([C@H](C)NC(=O)[C@@H]2C[C@@H](O)CN2C(=O)[C@@H](c2cc(N3CC4(CC(c5cc6nnc(-c7ccccc7O)cc6cc5C5CC5)C4)C3)no2)C(C)C)cc1 , I see its Dmax listed as > 75%

====

Here the recorded DC50 is given for each entry.
# assayed.system: HiBiT-BRM fusion protein in stable HeLa cell line (Homo sapiens)
# Construct: expressed in transfected cells
# test.summary: HiBiT-BRM cell-based degradation assay (Nano-Glo HiBiT Lytic Detection, 24 h)
# Parameters: scale not given here
# experimental.conditions: HeLa HiBiT-BRM cells, read-out: BRM HiBit Degradation IC50

// worked examples, DC50 included
{"compound": "CNC(=O)[C@@H]1C[C@@H](O)CN1C(=O)[C@@H](c1cc(N2CC3(CN(c4ccc5nnc(-c6ccccc6O)cc5c4)C3)C2)no1)C(C)C [Compound 181]", "property.measured": "DC50", "result": "> 100 nM"}
{"compound": "Cc1ncsc1-c1ccc([C@H](C)NC(=O)[C@@H]2C[C@@H](O)CN2C(=O)[C@@H](c2cc(N3CC4(CCC(c5ccc6nnc(-c7ccccc7O)cc6c5)CC4)C3)no2)C(C)C)cc1 [Compound 62]", "property.measured": "DC50", "result": "< 10 nM"}

Next up:
Lab entry: HiBiT-BRM fusion protein in stable HeLa cell line (Homo sapiens) assay, compound Cc1ncsc1-c1ccc([C@H](C)NC(=O)[C@@H]2C[C@@H](O)CN2C(=O)[C@@H](c2cc(OCC(=O)N3CC(c4ccc5nnc(-c6ccccc6O)cc5c4)C3)no2)C(C)C)cc1 [Compound 6] , DC50 = > 100 nM
